Value source: paper PMC5540273

For each entry below, report its inhibition at 1 µM value.
target: EPHA2 (Homo sapiens, UniProt P29317); test: KINOMEscan competition binding; settings: read-out: %Inh EPHA2
Sequence (P29317 24-976): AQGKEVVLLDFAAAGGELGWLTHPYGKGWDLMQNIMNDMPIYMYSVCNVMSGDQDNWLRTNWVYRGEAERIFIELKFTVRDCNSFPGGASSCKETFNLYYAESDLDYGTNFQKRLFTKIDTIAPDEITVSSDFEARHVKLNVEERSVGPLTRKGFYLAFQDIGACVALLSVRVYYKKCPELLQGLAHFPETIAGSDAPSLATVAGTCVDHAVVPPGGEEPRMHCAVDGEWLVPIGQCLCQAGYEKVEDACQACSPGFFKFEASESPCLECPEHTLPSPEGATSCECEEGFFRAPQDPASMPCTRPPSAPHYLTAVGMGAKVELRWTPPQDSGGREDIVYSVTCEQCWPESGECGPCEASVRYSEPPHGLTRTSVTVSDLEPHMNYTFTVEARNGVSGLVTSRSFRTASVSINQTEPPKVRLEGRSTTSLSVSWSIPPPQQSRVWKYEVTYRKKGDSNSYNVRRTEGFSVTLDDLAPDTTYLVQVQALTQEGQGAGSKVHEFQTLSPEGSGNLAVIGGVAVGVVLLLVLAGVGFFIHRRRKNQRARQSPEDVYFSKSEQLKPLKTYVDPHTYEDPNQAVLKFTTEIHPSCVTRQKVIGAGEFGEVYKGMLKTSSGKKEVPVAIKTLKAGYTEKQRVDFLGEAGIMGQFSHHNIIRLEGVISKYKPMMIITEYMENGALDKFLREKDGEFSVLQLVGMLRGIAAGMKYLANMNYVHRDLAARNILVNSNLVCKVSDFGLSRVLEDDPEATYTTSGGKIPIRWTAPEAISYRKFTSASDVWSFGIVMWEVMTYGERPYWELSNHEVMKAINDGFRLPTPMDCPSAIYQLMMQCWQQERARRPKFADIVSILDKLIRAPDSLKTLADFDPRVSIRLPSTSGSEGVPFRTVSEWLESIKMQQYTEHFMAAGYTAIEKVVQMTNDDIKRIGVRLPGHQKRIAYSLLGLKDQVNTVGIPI
Kindly answer with a numeric value in %, unit omitted.

What the record says about Cn1cc(-c2cnc(N)c3c(-c4ccc5c(c4)CCN5C(=O)Cc4ccccc4)csc23)cn1 [UNC10225012A] : inhibition at 1 µM is 0

What the record says about COc1cccc(OC)c1C(=O)Nc1cccc(-c2nn3ccccc3c2-c2ccnc(Nc3cccc(F)c3)n2)c1 [UNC10225310A] : inhibition at 1 µM is 11

What the record says about CS(=O)(=O)Cc1ccc(Nc2nccc(-c3c(-c4cccc(NC(=O)C5CCCCC5)c4)nn4ncccc34)n2)cc1 [UNC10225159A] : inhibition at 1 µM is 51

What the record says about Cc1ccc(NC(=O)Nc2cccc(C(F)(F)F)c2)cc1 [UNC10225187A] : inhibition at 1 µM is 0

What the record says about O=c1cc(N2CCOCC2)nc2n(Cc3cccc(Cl)c3Cl)c(C3CC3)nn12 [UNC10225469A] : inhibition at 1 µM is 0
